# experimental_target: Serine/threonine-protein kinase PLK1 (Homo sapiens) (UniProt P53350)
# Sequence (P53350 whole entry, looked up, the tested form may be a part): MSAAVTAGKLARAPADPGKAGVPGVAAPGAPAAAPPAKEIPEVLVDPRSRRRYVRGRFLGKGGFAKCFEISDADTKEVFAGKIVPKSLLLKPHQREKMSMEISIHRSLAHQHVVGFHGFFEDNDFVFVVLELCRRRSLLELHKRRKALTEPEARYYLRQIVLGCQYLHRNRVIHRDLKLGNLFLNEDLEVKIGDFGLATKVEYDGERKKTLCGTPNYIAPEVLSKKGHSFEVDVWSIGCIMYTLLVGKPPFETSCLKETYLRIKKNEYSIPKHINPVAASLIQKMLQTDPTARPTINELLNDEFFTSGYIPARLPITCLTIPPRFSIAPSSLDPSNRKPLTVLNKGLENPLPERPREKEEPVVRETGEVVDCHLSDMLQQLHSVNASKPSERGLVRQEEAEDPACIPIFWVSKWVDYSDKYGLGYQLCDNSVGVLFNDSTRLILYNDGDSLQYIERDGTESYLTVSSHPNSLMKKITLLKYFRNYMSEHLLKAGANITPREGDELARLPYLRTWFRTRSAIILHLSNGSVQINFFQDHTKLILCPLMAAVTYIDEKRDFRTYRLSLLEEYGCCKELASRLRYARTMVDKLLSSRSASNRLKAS
# experimental_protocol: qHTS for Inhibitors of PLK1-PDB (polo-like kinase 1 - polo-box domain): Primary Screen; note: series mostly up to about 57 µM; % is set by controls: 0 for no effect and ±100 for the full control effect; nearly all actives have a fitted effect of over 65% in size
# experimental_context: Plk1 PBD binding of FITC phosphopeptide, fluorescence polarization
Out of some 360,000 compounds screened, about 10,000 (2.8%) were called active. Inconclusive results (about 4%) are left out. Shown is part of a subset that was picked to be rich in actives.
metric_name: max response, negative = inhibition (%)

1. CC(=O)c1cccc(NC(=O)c2cc(C)nn2-c2ccccc2)c1 | 5.02
2. CC(=O)Nc1ccc(CNc2nc(NCCN(C)C)nc3cc(-c4ccccc4)sc23)cc1 | 0.652
3. Cc1ccc(NC(=O)Cn2c(C)csc2=O)cc1 | -1.66
4. CC(=O)N1CCc2c(sc(NC(=O)CCS(=O)(=O)c3ccccc3)c2C#N)C1 | -11.3
5. CCOC1=C2[C@@H](CN(S(=O)(=O)c3ccc(C)cc3)[C@H]2c2ccccc2F)[C@H]2C(=O)N(Cc3ccccc3)C(=O)[C@H]2C1 | -14.5
6. CC1(C(=O)NCc2ccc3c(c2)OCO3)CCN1C(=O)Cc1cccs1 (centres undefined) | 10.1
7. CC(C)C[C@H]1CNC(=S)N1C[C@H]1CCCN1C[C@H](Cc1ccc(O)cc1)N1C[C@H](Cc2ccc(O)cc2)N(CC2CCCCC2)C1=S | 1.95
8. CN(Cc1ccccc1)C(=O)[C@@H]1CCCN1C(=O)[C@@H]1CCCN1C(=O)c1c(F)cccc1F | -9.51
9. Cc1cc(C)cc(NC(=O)CN2C(=O)c3ccccc3C2=O)c1 | -3.07
